- Test Protocol: CCTE_Shafer_MEA_acute_interburst_interval_mean: CCTE's Neural Acute Assay for Mean Interburst Interval, Shafer Lab (AID 2284016);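 also: percent change of mean interburst interval versus each well's own pre-dose baseline; curves fitted for decrease in interburst interval relative to DMSO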
Activity calls are given as the source filed them. The calls were made as follows: active = hit-call score of the fitted dose curve at least 0.9, where 1 is the maximum; inactive = score below 0.9.
Result category, one only: active, inactive

Could you kindly confirm the outcome this assay logged for CCOC(=O)c1ccccc1C(=C1C=C(Br)C(=O)C(Br)=C1)c1cc(Br)c(O)c(Br)c1 ?
inactive

Lab log entry: CCO[Si](C)(OCC)OCC — outcome as called in the assay?
inactive

Could you please tell me the result logged for C=C[Si](OC(C)=O)(OC(C)=O)OC(C)=O in this assay?
inactive

Dear all, I need the recorded test outcome for CO[Si](OC)(OC)c1ccccc1 , thank you.
inactive

Test call, this molecule: O=C1CCCN1CCO
inactive

Hi, do you know how O=C(c1ccc(O)cc1)c1ccc(O)cc1O came out in this test?
active
